# Assayed System: Ubc13 (Homo sapiens, UniProt P61088)
# Construct: recombinant Ubc13
# Sequence (P61088 whole entry): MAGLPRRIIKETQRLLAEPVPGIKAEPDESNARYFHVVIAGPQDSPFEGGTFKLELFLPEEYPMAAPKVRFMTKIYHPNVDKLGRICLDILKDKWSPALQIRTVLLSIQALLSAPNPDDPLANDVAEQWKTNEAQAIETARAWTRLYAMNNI
# Procedure Details: MALDI-TOF intact mass shift (covalent adduct, +[…] Da); IC50 from E2 ubiquitin loading assay with purified UBE1 and E2
pIC50: −log10 of the molar value. Where a name gives a salt, the structure may show the parent alone.
Reported Endpoint: pIC50

Find the measured pIC50: item COC(=O)/C=C/C(=O)OC [Dimethyl fumarate] , target or system Ubc13 (Homo sapiens, UniProt P61088). 4.70 to 5.00
